Test system: E. faecium ATCC 35667
measurement type: MIC (µg/mL)
Provide the reading as a plain figure in µg/mL.

Consider the worked cases shown below.
| compound | target or system | value reported |
| --- | --- | --- |
| NCCSCc1ncccc1SC1=C(C(=O)O)N2C(=O)[C@@H](NC(=O)/C(=N\O)c3nc(N)sc3Cl)[C@H]2SC1 | E. faecium ATCC 35667 | 0.5 |
| NCCSCc1ccncc1SC1=C(C(=O)O)N2C(=O)[C@@H](NC(=O)/C(=N\O)c3nsc(N)n3)[C@H]2SC1 | E. faecium ATCC 35667 | 8 |
| N=C(N)NCCSCc1ncccc1SC1=C(C(=O)O)N2C(=O)[C@@H](NC(=O)/C(=N\O)c3nc(N)sc3Cl)[C@H]2SC1 | E. faecium ATCC 35667 | 0.25 |
| NCCSCc1ccncc1SC1=C(C(=O)O)N2C(=O)[C@@H](NC(=O)/C(=N\O)c3nc(N)sc3Cl)[C@H]2SC1 | E. faecium ATCC 35667 | 1 |
| C[C@@H](O)[C@H]1C(=O)N2C(C(=O)O)=C(SCCN=CN)C[C@H]12 [Imipenem, reference compound] | E. faecium ATCC 35667 | 4 |

Input line: Lab note: E. faecium ATCC 35667 assay, enter MIC for NCCSCc1ncccc1SC1=C(C(=O)O)N2C(=O)[C@@H](NC(=O)/C(=N\O)c3nsc(N)n3)[C@H]2SC1 here
Output line: 1

Input line: State MIC (E. faecium ATCC 35667) of N=C(N)NCCSCc1ncccc1SC1=C(C(=O)O)N2C(=O)[C@@H](NC(=O)/C(=N\O)c3nsc(N)n3)[C@H]2SC1 .
Output line: 0.5

Provenance of the data: patent EP1222194B1
